- Tested on: gastric acid secretion
- EXPERIMENT: Inhibiting effect of gastric acid secretion, perfused stomach, pentagastrin-stimulated (Ghosh & Schild)
- Assay type: in vivo, male SD rat
- ASSAY_CONTEXT: urethane-anesthetized SD rat, pentagastrin 0.05 μg/kg/min, injected through femoral vein; ratio of area index to that of PGE2
REPORTED_METRIC: Inhibiting effect of gastric acid secretion, Relative effect (PGE2 = 1)
Give bare numbers.

Some compounds with known Inhibiting effect of gastric acid secretion, Relative effect (PGE2 = 1) results, for comparison:
CCCC(C)(C)C[C@H](O)/C=C/[C@@H]1[C@H]2c3cccc(OCC(=O)O)c3O[C@H]2C[C@H]1O (relative stereo)    3.0
CCC(C)(C)[C@H](O)/C=C/[C@@H]1[C@H]2c3cccc(OCC(=O)O)c3O[C@H]2C[C@H]1O (relative stereo)    19

The reported Inhibiting effect of gastric acid secretion, Relative effect (PGE2 = 1) of the compound O=C(O)COc1cccc2c1O[C@H]1C[C@@H](O)[C@H](/C=C/[C@@H](O)CC3CCCC3)[C@@H]21 (relative stereo) was 11

###

- Tested on: gastric acid secretion
- EXPERIMENT: Inhibiting effect of gastric acid secretion, perfused stomach, pentagastrin-stimulated (Ghosh & Schild)
- Type: in vivo, male SD rat
- ASSAY_CONTEXT: urethane-anesthetized SD rat, pentagastrin 0.05 μg/kg/min, injected through femoral vein; ratio of area index to that of PGE2
Hi there, I'd appreciate the recorded Inhibiting effect of gastric acid secretion, Relative effect (PGE2 = 1) for every entry that follows.
Numbers only.

Some compounds with known Inhibiting effect of gastric acid secretion, Relative effect (PGE2 = 1) results, for comparison:
O=C(O)COc1cccc2c1O[C@H]1C[C@@H](O)[C@H](/C=C/[C@@H](O)Cc3ccccc3)[C@@H]21 (relative stereo) [Compound 260]    13
CC(C)(c1ccccc1)[C@H](O)/C=C/[C@@H]1[C@H]2c3cccc(OCC(=O)O)c3O[C@H]2C[C@H]1O (relative stereo) [Compound 293]    4.8
Cc1ccc([C@H](O)/C=C/[C@@H]2[C@H]3c4cccc(OCC(=O)O)c4O[C@H]3C[C@H]2O)cc1 (relative stereo) [Compound 270]    16
Cc1ccccc1[C@H](O)/C=C/[C@@H]1[C@H]2c3cccc(OCC(=O)O)c3O[C@H]2C[C@H]1O (relative stereo) [Compound 266]    7.2
O=C(O)COc1cccc2c1O[C@H]1C[C@@H](O)[C@H](/C=C/[C@@H](O)CCc3ccccc3)[C@@H]21 (relative stereo) [Compound 263]    42

Turning now to a further record.
The reported Inhibiting effect of gastric acid secretion, Relative effect (PGE2 = 1) of the compound CC(C)(Oc1ccccc1)[C@H](O)/C=C/[C@@H]1[C@H]2c3cccc(C#CC(=O)O)c3O[C@H]2C[C@H]1O (relative stereo) [Compound 371] was 8

###

- Test system: gastric acid secretion
- EXPERIMENT: Inhibiting effect of gastric acid secretion, perfused stomach, pentagastrin-stimulated (Ghosh & Schild)
- Format: in vivo, male SD rat
- ASSAY_CONTEXT: urethane-anesthetized SD rat, pentagastrin 0.05 μg/kg/min, injected through femoral vein; ratio of area index to that of PGE2
REPORTED_METRIC: Inhibiting effect of gastric acid secretion, Relative effect (PGE2 = 1)
Answers are plain numbers.

Some compounds with known Inhibiting effect of gastric acid secretion, Relative effect (PGE2 = 1) results, for comparison:
CCC[C@H](C)C[C@H](O)/C=C/[C@@H]1[C@H]2c3cccc(OCC(=O)O)c3O[C@H]2C[C@H]1O    41
O=C(O)COc1cccc2c1O[C@H]1C[C@@H](O)[C@H](/C=C/[C@@H](O)CCC3CCCCC3)[C@@H]21 (relative stereo)    3.9
O=C(O)COc1cccc2c1O[C@H]1C[C@@H](O)[C@H](/C=C/[C@@H](O)C3CCCCC3)[C@@H]21 (relative stereo)    4.1

Please report Inhibiting effect of gastric acid secretion, Relative effect (PGE2 = 1) for every entry that follows.
1. CC(C)(Cc1ccccc1)[C@H](O)/C=C/[C@@H]1[C@H]2c3cccc(OCC(=O)O)c3O[C@H]2C[C@H]1O (relative stereo)
2. O=C(O)COc1cccc2c1O[C@H]1C[C@@H](O)[C@H](/C=C/[C@@H](O)c3cccc(Cl)c3)[C@@H]21 (relative stereo)

OUTPUT:
[75, 4.1]

The reported Inhibiting effect of gastric acid secretion, Relative effect (PGE2 = 1) of the compound CC#CCC(C)[C@H](O)/C=C/[C@@H]1[C@H]2c3cccc(OCC(=O)O)c3O[C@H]2C[C@H]1O (relative stereo) was 41
